The measured values listed here are drawn from the supplement of paper PMC6555819.

- System: LXRa:RXRa (NR concentration 270 nM, RXRa partner concentration 90 nM)
- testName: PBM binding z-score (relative to random genomic background probes); higher = stronger binding; sequences stand for … in GC…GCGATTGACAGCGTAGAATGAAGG
Decision: PBM binding z-score >= 1 yields criterion met, all other cases yield criterion not met.

Data request: Tell me whether PBM binding z-score is at least 1 here: CGAAGTAGGTCATCCAGGACAGTGAATACATTGA
Data returned: criterion met

Data request: PBM binding z-score >= 1 for TTACCAAGGTGAAAGGTCGTCGATGCACGCCTTG ?
Data returned: criterion met

Data request: Identify whether the reported PBM binding z-score of the following sequence is 1 or greater: TAGCCCAGGTCATTCAGGGGCCAGTATAGAAAGC
Data returned: criterion met

Data request: Record AGCATGAGGTTATACGTAGATCAGGGAAGAAAGT ; criterion: PBM binding z-score no lower than 1. Met?
Data returned: criterion met

Data request: Is it the case that ATATGTAGGTTACATCCGGGTCATTCGGGCTATG has PBM binding z-score reaching or exceeding 1?
Data returned: criterion met

Data request: Could you tell me if the measured PBM binding z-score of CCTCGGAGGGCAACAGGAGGTCAGAGCTGCCAGA reaches 1 or more?
Data returned: criterion met

----------
- System: PPARg DBDmut IVT, anti-PPARg (DBD mutation: PPARg1 K132A/R137A, NR concentration 270 nM)
- testName: PBM binding z-score (relative to random genomic background probes); higher = stronger binding; sequences stand for … in GC…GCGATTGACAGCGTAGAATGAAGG
Categorize each record by its PBM binding z-score using range A = under -0.3, range B = from -0.3 up to 0.6, range C = 0.6 and over

Example entries and their recorded answers appear below.
ATCGAAAGATCGACGAGGTGAGTATACACCGTTT ... range B
GCGACTGGGGCAAAGCAGGTTACCACAAGGTTGG ... range A
CGTCCAACGTCAGAGAGGTCAGTGAATGCCGAGT ... range A

Data request: # bin label for CTCGCAAGGTCGGTTGAGGTGAGTATACGGATAA
Data returned: range B

Data request: Which PBM binding z-score category applies to TCTATTAGTTGAAGGCCAACCGACGAGTCCGTTT here?
Data returned: range B

Data request: Using the reported PBM binding z-score, which band applies to ATCTCTAGGTAACAAGTTAAGTGAAAGAGAGGAC ?
Data returned: range C

Data request: Record CGTCAAAGATCAACTAAGGTAACGTAAAGCACGC — which class?
Data returned: range B

----------
- System: RARg homodimer (NR concentration 270 nM)
- testName: PBM binding z-score (relative to random genomic background probes); higher = stronger binding; sequences stand for … in GC…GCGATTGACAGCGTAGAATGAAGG
Binary call on PBM binding z-score: Condition met from 1 upward, Condition not met beneath that.

Below, 8 sequences whose answers are already recorded.
TCTAGTTGATCACGGAGGTCACACACGACGGGTA ... Condition met
ACTATTAGTTGACTTAGGGAAACCGATACGACGC ... Condition not met
CCGGGTAGGTTATGGGGCATTCAGGCAACGGTGA ... Condition not met
TCAGACAGGTGAAGGTAACGCAGGTACGCAGTCG ... Condition not met
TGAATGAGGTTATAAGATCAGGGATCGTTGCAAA ... Condition not met
ATCGAAAGGTAGTGAGGTGAGTATACAGAAAGGC ... Condition not met
GCTGCTAGGTTAGGTTGGTCAGCTAACGGGTACG ... Condition not met
GTACCAAGATGAATAGGTCGTTGATGAGTAGGCG ... Condition not met

Data request: Could you please find out whether AGAATGAGGTTATACGTAGATCAGGGATGAAAGT has PBM binding z-score that meets 1 or exceeds it?
Data returned: Condition met

Data request: # bool: PBM binding z-score of ATCTCTAGGTATCAAGTTCAGTGAAAGAGAGGAC >= 1
Data returned: Condition met

Data request: Check this sequence for PBM binding z-score at or above 1: CCTACTGCGCCAAGGTCATTGATCAGTCAAAGCA
Data returned: Condition met

Data request: Would you say TCTATTAGTTGATTAGGGCATCCGAAACAGCGGA shows PBM binding z-score at minimum 1?
Data returned: Condition not met

Data request: hey, is PBM binding z-score for this one >= 1? ATCTCTAGGTAAGGTTCAGTGAAAGATCGATAGA
Data returned: Condition met
